test system: HCT116, a colorectal carcinoma cell line; test: Tetrazolium dye proliferation assay (MTT assay); type: cell-based; details: Homo sapiens, HCT-116, HCT116 cells, inhibition of cell proliferation
pIC50: −log10 of the molar value.
Record label 1 whenever pIC50 is at 6 or higher; record label 0 when lower.

## Task In plain terms: is recorded pIC50 at least 6 for CCN(CC)CCOc1ccc(Nc2nc(N)c(C(=O)c3cccc(SC)c3)s2)cc1 ?
## Result label 0

## Task In plain terms: is recorded pIC50 at least 6 for CCCc1cc(C(=O)c2sc(Nc3ccc(OCCN4CCCC4)cc3)nc2N)ccc1O ?
## Result label 1

## Task In plain terms: is recorded pIC50 at least 6 for C[C@H](COc1ccc(Nc2nc(N)c(C(=O)c3cccc(C4CC4)c3)s2)cc1)N(C)C ?
## Result label 0
